Reference source for all entries: patent US20250099420A1

The reader will find reported Averaged Max % Response (±St. Dev.) values listed item by item below.
# Experimental System: GPR139 (Homo sapiens)
# Sequence (Q6DWJ6 whole entry): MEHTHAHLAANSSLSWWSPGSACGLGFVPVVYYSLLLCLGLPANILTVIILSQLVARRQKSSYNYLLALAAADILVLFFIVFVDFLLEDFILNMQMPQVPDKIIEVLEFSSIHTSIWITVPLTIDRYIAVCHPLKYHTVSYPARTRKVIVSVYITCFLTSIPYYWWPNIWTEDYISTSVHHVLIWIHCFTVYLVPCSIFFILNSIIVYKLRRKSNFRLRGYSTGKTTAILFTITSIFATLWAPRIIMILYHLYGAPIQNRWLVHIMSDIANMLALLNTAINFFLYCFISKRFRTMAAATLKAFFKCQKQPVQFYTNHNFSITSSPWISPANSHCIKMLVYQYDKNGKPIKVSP
# Assay Procedure: GPR139 Agonist titration / agonist counterscreen assay (calcium detection, HEK-GPR139 cells)
# Format: cell-based
# Design: expressed in transfected cells; host or cells: HEK Aequorin cells, Maxcyte transient transfection
# Experimental Context: GPR139 Agonist Activity; activity relative to known control
# Method: GPR activity was assessed using a calcium detection assay. […] Negative control samples were treated with DMSO. […] Intracellular calcium was measured using Calcium 5.
Property Label: Averaged Max % Response (±St. Dev.) (%)

* COc1ccccc1C(=O)NNC(=O)C(C)Oc1ccc(Cl)cc1Cl (centres unmarked) | 106.05
* Cc1ccc(CNc2nc3ccccc3n2CCN2CCOCC2)cc1 | 94.68
* CCCn1c(CCC(=O)NCCc2ccc(OCC)cc2)nc2cccnc21 | 102.55
* COc1ccc(CCNC(=O)c2cnc(N3CCCC3CO)s2)cc1 (centres unmarked) | 123.26
* O=C(NCCS(=O)(=O)N1CCc2ccccc2C1)C(c1ccccc1)c1ccccc1 | 93.88
* O=C(CN1C(=O)NC2(CCc3ccccc3C2)C1=O)N1CCc2ccccc2C1 (centres unmarked) | 103.63
* CN(C)CCOc1cc(NC(=O)C2COc3ccccc3C2)ccc1-c1cn[nH]c1.O=C(O)C(F)(F)F.O=C(O)C(F)(F)F (centres unmarked) | 79.85
* Cc1cc(C(=O)CCC(=O)NNC(=O)c2ccc(COc3ccccc3)cc2)c(C)o1 | 126.19
